- Measurement Target: human P2X3 receptor (Homo sapiens, UniProt P56373)
- Sequence (P56373 1-397): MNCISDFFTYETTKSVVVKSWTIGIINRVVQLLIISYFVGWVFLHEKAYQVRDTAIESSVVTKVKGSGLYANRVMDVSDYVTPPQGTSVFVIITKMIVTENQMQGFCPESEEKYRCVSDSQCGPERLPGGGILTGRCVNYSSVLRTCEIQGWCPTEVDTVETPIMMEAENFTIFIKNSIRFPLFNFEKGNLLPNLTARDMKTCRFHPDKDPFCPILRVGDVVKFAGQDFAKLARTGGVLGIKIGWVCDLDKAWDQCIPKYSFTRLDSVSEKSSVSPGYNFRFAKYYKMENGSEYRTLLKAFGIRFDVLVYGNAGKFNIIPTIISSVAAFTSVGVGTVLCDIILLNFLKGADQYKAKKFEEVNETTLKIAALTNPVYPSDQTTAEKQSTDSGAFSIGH
- Protocol: Intracellular calcium measurement to assess antagonist activity at human P2X3 receptors (hP2X3 CHO), photina luminescence
- Assay type: cell-based
- Set-up: expressed in transfected cells; host or cells: Chinese hamster ovary (CHO) cells
- Experimental Context: column 2), CHO cells, agonist α,β-methylene-ATP at EC50
Endpoint: IC50 (nM)

CCc1cc2n(CC(=O)Nc3ccc(F)cn3)c3c(c(=O)n2n1)CN(CC)C3=O; 57

[a] COC[C@H](C)N1Cc2c(n(CC(=O)Nc3ccc(F)cn3)c3cc(C(=O)N(C)CC4CC4)nn3c2=O)C1=O
[b] CCc1cc2n(CC(=O)Nc3ccc(F)cn3)c3c(c(=O)n2n1)CN(C1CCOC1)C3=O (racemic)
[c] CCc1cc2n(CC(=O)Nc3ccc(F)cn3)c3c(c(=O)n2n1)CN(C1CN(S(C)(=O)=O)C1)C3=O
Inquiry: List these items ordered by IC50, big to small. Provide your answer as the labels ordered per the instruction.
Reply text: c, b, a
(c: 565 nM, b: 111 nM, a: 20 nM)
